Organism: Cavia porcellus
Assay: Percent inhibition of the leukotriene E4 (LTE4)-induced contraction of guinea pig tracheal spirals at 5 uM concentration
Format: functional
Conditions: Trachea
Each item that follows carries a reported inhibition at 5 µM.
Kindly provide the numeric value in % only, without the unit symbol.

structure-smiles-string: COc1cc(C(=O)O)ccc1COc1ccc(C(C)=O)c(O)c1C=C(C)C
inhibition at 5 µM [%]: 69

structure-smiles-string: C=C(C)Cc1c(OCc2ccc(C(=O)O)cc2OC)ccc(C(C)=O)c1O
inhibition at 5 µM [%]: 82

structure-smiles-string: CCCc1c(OCc2ccc(C(=O)O)cc2OC)ccc(C(=O)CC)c1O
inhibition at 5 µM [%]: 73

Moving on to another molecule below.
Param item = CCCc1c(OCc2ccc(C(=O)O)cc2OC)ccc(C(=O)OC)c1O ; retrieve measured inhibition at 5 µM.
52

###

Species on record: Cavia porcellus
Assay: Percent inhibition of the leukotriene D4 (LTD4)-induced contraction of guinea pig tracheal spirals at 3.3 uM concentration
Assay type: functional
Settings: Trachea, in the assay text read “leukotriene E4 (LTE4)” for “leukotriene D4 (LTD4)”
Threshold rule: inhibition at 3.3 µM greater than or equal to 70% is true (1); below that, false (0).

Some solved cases for reference:
structure-smiles-string: CCCc1c(OCc2ccc(-c3nn[nH]n3)c(Br)c2)ccc(C(C)=O)c1O
class-assignment: false (0)
--
structure-smiles-string: CCCc1c(OCc2cccc(NC(=O)CCC(=O)O)c2)ccc(C(C)=O)c1O
class-assignment: false (0)
--
structure-smiles-string: CCCc1c(OCc2ccc(C(=O)NS(C)(=O)=O)cc2OC)ccc(C(C)=O)c1O
class-assignment: false (0)
--
structure-smiles-string: CCCc1c(OCc2ccc(-c3nn[nH]n3)cc2)ccc(C(C)=O)c1O
class-assignment: true (1)
--
structure-smiles-string: CCCc1c(OCc2ccc(C(=O)O)cc2OCCCn2cnnn2)ccc(C(C)=O)c1O
class-assignment: true (1)

Has CCCc1c(OCc2ccc(C(=O)O)cc2OCCCC#N)ccc(C(C)=O)c1O a recorded inhibition at 3.3 µM greater than or equal to 70%?
true (1)

###

// values below are reported inhibition at 4 µM
Species: Cavia porcellus
Experiment: Percent inhibition of the leukotriene D4 (LTD4)-induced contraction of guinea pig tracheal spirals at 4 uM concentration
Format: functional
Conditions: Trachea
Please reply with the bare figure in % and do not write the unit itself.

structure-smiles-string: CCCc1c(OCc2ccc(OC)c(/C=C/C(=O)O)c2)ccc(C(C)=O)c1O
obs-value: 63
//
structure-smiles-string: CCCc1c(OCc2ccc(C(=O)O)cc2OC)ccc2c(C)cc(=O)oc12
obs-value: 44

I would be grateful if you could share the reported inhibition at 4 µM for COc1cc(C(=O)O)ccc1COc1ccc(C(C)=O)c(O)c1C .
33

# query: inhibition at 4 µM of entry CCCc1c(OCc2ccc(C(=O)O)cc2[N+](=O)[O-])ccc(C(C)=O)c1O
57

Quick one: inhibition at 4 µM of CCCc1c(OCc2ccc(C(=O)O)cc2)ccc(C(C)=O)c1O ?
36

Quick check: inhibition at 4 µM of CCCc1c(OCc2ccc(/C=C/C(=O)O)c(OC)c2)ccc(C(C)=O)c1O ?
66

Report inhibition at 4 µM for CCCc1c(OCc2cccc(/C=C/C(=O)O)c2)ccc(C(C)=O)c1O please.
66

Recorded values, source ChEMBL document CHEMBL1124444.
